The values you see were collected from patent US20250090699A1.

Assayed Target: mouse FAP (Mus musculus)
Construct: biotinylated His, Avi tag, mouse FAP (26-761, FAP-M82Q5); His; Avi tag (biotinylated); purchased AcroBiosystems FAP-M82Q5
Sequence (P97321 26-761): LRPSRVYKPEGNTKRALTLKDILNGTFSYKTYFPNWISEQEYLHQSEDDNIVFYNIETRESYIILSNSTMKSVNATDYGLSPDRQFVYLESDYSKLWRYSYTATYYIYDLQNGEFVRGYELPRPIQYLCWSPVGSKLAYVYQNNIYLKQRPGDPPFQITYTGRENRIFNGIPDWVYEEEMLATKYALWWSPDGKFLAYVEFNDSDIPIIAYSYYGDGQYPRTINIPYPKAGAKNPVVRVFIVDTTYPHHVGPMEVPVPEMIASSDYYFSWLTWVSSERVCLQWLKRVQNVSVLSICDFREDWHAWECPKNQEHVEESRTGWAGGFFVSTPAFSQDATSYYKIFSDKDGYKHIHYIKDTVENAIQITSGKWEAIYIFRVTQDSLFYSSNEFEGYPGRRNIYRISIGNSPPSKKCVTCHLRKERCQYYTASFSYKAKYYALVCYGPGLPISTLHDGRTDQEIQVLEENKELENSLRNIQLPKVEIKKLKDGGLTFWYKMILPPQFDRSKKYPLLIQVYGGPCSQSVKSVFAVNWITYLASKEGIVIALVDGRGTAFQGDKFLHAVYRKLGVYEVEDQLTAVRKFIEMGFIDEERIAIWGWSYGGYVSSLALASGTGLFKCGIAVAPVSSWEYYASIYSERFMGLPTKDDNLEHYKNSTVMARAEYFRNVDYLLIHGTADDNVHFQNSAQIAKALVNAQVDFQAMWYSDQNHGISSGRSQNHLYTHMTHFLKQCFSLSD
Assay Method Text: Enzymatic FAP competition assay (Z-Gly-Pro-AMC fluorescence), mouse FAP
Assay type: biochemical
Experimental Conditions: read-out: m. FAP, Enz., IC50
Starred links: 1 amine or outer side, 2 acyl side, 3 side chain; linkers in the order of their positions; H or OH if unused. Non-standard residues stand in square brackets, D forms with d. Primed or numbered codes have the meaning given here. *: point of attachment. F4(amBAlaDOTALu) = lutetium complex of (S)-2,2',2''-(10-(2-((3-((4-(2-amino-2-carboxyethyl)benzyl)amino)-3-oxopropyl)amino)-2-oxoethyl)-1,4,7,10-tetraazacyclododecane-1,4,7-triyl)triacetic acid (Phe with 4-aminomethyl-βAla-DOTA-Lu), O=C([O-])CN1CCN(CC(=O)[O-])CCN(CC(=O)NCCC(=O)NCc2ccc(C[C@H](N[*:1])C(=O)[*:2])cc2)CCN(CC(=O)[O-])CC1.[Lu+3]; F(4OEtNHDOTA-Lu) = lutetium complex of (S)-2,2',2''-(10-(2-((2-(4-(2-amino-2-carboxyethyl)phenoxy)ethyl)amino)-2-oxoethyl)-1,4,7,10-tetraazacyclododecane-1,4,7-triyl)triacetic acid (Phe with 4-O-ethylamino-DOTA-Lu), O=C([O-])CN1CCN(CC(=O)[O-])CCN(CC(=O)NCCOc2ccc(C[C@H](N[*:1])C(=O)[*:2])cc2)CCN(CC(=O)[O-])CC1.[Lu+3]; F(4amDOTA-Lu) = lutetium complex of (S)-2,2',2''-(10-(2-((4-(2-amino-2-carboxyethyl)benzyl)amino)-2-oxoethyl)-1,4,7,10-tetraazacyclododecane-1,4,7-triyl)triacetic acid (Phe with 4-aminomethyl-DOTA-Lu), O=C([O-])CN1CCN(CC(=O)[O-])CCN(CC(=O)NCc2ccc(C[C@H](N[*:1])C(=O)[*:2])cc2)CCN(CC(=O)[O-])CC1.[Lu+3]; F(4OEtnHNODAGA-Lu) = lutetium complex of 2,2'-(7-(4-((2-(4-((S)-2-amino-2-carboxyethyl)phenoxy)ethyl)amino)-1-carboxy-4-oxobutyl)-1,4,7-triazonane-1,4-diyl)diacetic acid (Phe with 4-O-ethylamino-NODAGA-Lu); K(COpipzaa) = N6-(4-(carboxymethyl)piperazine-1-carbonyl)-L-lysine, O=C(NCCCC[C@H](N[*:1])C(=O)[*:2])N1CCN(CC(=O)[*:3])CC1; COpipzaa″ = 4-(carboxymethyl)piperazine-1-carbonyl on Lys N6, O=C(O)CN1CCN(C(=O)*)CC1; COpipzaa = 4-(carboxymethyl)piperazine-1-carbonyl, O=C(O)CN1CCN(C(=O)*)CC1; F(4amPEG2NHRDOTAGA-Ga) = Phe with 4-aminomethyl-PEG2-NH-DOTAGA, Ga complex; F(4amPEG2NHDOTA-Ga)″ = Phe with 4-aminomethyl-PEG2-NH-DOTA, Ga complex; hS(Pr) = O-propyl-L-homoserine, CCCOCC[C@H](N[*:1])C(=O)[*:2]; 3Pal(6-NH2) = Nc1ccc(C[C@H](N)C(=O)O)cn1; NMeF = CN[C@@H](Cc1ccccc1)C(=O)O; Ahp(2) = CCCCC[C@H](N)C(=O)O
Experimental Readout: IC50 (nM)
Entry rule: numbers only, all in nM.

As a guide, the following entries are already answered.
Substance	Readout Unit	Recorded Result
Gly-Gly-NMePhe-F(4amPeG2NHDOTA-Ga)-Ahp-Trp-Gly-K(COpipzaa)-asp-D-Pro (cyclo(GG[NMeF][F(4amPEG2NHDOTA-Ga)″][Ahp(2)]WGK(COpipzaa)D[dP]); also: Ga in DOTA chelate) [Example C46]	nM	0.032
Gly-Gly-NMePhe-F(4OEtnHNODAGA-Lu)-Ahp-Trp-Gly-Tyr-Asp-D-Pro (cyclo(GG[NMeF][F(4OEtnHNODAGA-Lu)][Ahp(2)]WGYD[dP]); also: Lu complex) [Example C30]	nM	0.193
Gly-Gly-NMePhe-F(4OEtNHDOTA-Lu)-Ahp-Trp-Gly-K(COpipzaa)-Asp-D-Pro (cyclo(GG[NMeF][F(4OEtNHDOTA-Lu)][Ahp(2)]WG[K(COpipzaa)]D[dP]); also: Lu complex of DOTA) [Example C27]	nM	0.072
Gly-Gly-NMePhe-F4(amBAlaDOTALu)-Ahp-Trp-Gly-Tyr-Asp-D-Pro (cyclo(GG[NMeF][F4(amBAlaDOTALu)][Ahp(2)]WGYD[dP]); also: Lu complex) [Example C10]	nM	0.024
K(COpipzaa)-Gly-NMePhe-F(4OEtNHDOTA-Lu)-Ahp-Trp-Gly-Tyr-Asp-D-Pro (cyclo(K(COpipzaa″)G[NMeF][F(4OEtNHDOTA-Lu)][Ahp(2)]WGYD[dP]); also: Lu complex) [Example C25]	nM	0.35
Gly-Gly-NMePhe-F(4amPEG2NHRDOTAGA-Ga)-hS(Pr)-Trp-Gly-K(COpipzaa)-AsI-D-Pro (cyclo(GG[NMeF][F(4amPEG2NHRDOTAGA-Ga)][hS(Pr)]WGK(COpipzaa)D[dP]); also: Ga complex) [Example C39]	nM	0.051

The reported IC50 of the substance Gly-Gly-NMePhe-F(4amDOTA-Lu)-Ahp-Trp-Gly-Tyr-Asp-D-Pro (cyclo(GG[NMeF][F(4amDOTA-Lu)][Ahp(2)]WGYD[dP]); also: Lu complex) [Example C16] was 0.29

The reported IC50 of the substance Gly-Gly-NMePhe-F(4OEtNHDOTA-Lu)-Ahp-Trp-Gly-3PyA(6NH2)-Asp-D-Pro (cyclo(GG[NMeF][F(4OEtNHDOTA-Lu)][Ahp(2)]WG[3Pal(6-NH2)]D[dP]); also: Lu complex of DOTA) [Example C24] was 0.059
